system: jimpy (Plp1 jimpy) mouse iPSC-derived oligodendrocyte progenitor cells; test: total cell number (DAPI+ nuclei) relative to DMSO vehicle control (SDs above negative control mean); higher = more surviving cells; conditions: 10 µM; 3 days
Over roughly 2,600 compounds, “total cell number (DAPI+ nuclei) relative to DMSO vehicle control” has its median near -1.4; the lowest 2% begin near -23. For the sample, the lowest values were picked, then their nearest neighbours and some compounds at random.

Molecule | total cell number
COc1cc(OC2CCN(C)CC2)ccc1Nc1ncc2c(n1)n(C1CCCC1)c(=O)n2C | -7.07
C[C@H](Oc1cc(-c2cnn(C3CCNCC3)c2)cnc1N)c1c(Cl)ccc(F)c1Cl [(S)-crizotinib] | -15.7
Cc1ccc(C(=O)N(CCCN)[C@@H](c2oc3cc(Cl)ccc3c(=O)c2Cc2ccccc2)C(C)C)cc1 | -15.1
CC[C@@H]1C(=O)N(C)c2cnc(Nc3ccc(C(=O)N[C@H]4CC[C@H](N5CCN(CC6CC6)CC5)CC4)cc3OC)nc2N1C(C)C [Volasertib (BI 6727)] | -14.6
C[C@@H](Oc1cc(-c2cnn(C3CCNCC3)c2)cnc1N)c1c(Cl)ccc(F)c1Cl | -27.1
N[C@@H](Cc1ccc(F)cc1)C(=O)O [p-Fluoro-L-phenylalanine] | -1.39
O=C(O)C1(C(=O)O)CCC1.[NH2-].[NH2-].[Pt+2] [Carboplatin] | -4.56
Fc1cc(-c2cccc3ncc(-c4cnn(C5CCNCC5)c4)nc23)cc(F)c1CN1CCOCC1 | -12.4

###

Item-by-item account of total cell number
test system: jimpy (Plp1 jimpy) mouse iPSC-derived oligodendrocyte progenitor cells; test: total cell number (DAPI+ nuclei) relative to DMSO vehicle control (SDs above negative control mean); higher = more surviving cells; settings: 10 µM; 3 days
Over roughly 2,600 compounds, “total cell number (DAPI+ nuclei) relative to DMSO vehicle control” has its median near -1.4; the lowest 2% begin near -23. This is one part of a sample in which the lowest values are shown more often than they occur.
Assay Endpoint: total cell number

Compound | Value Measured
COC(=O)N[C@H](C(=O)N1CCC[C@H]1c1ncc(-c2ccc(-c3ccc(-c4cnc([C@@H]5CCCN5C(=O)[C@@H](NC(=O)OC)C(C)C)[nH]4)cc3)cc2)[nH]1)C(C)C | -5.73
CN(C)C(=O)[C@H](O)[C@H](Cc1ccccc1)NC(=O)c1cc2cc(Cl)ccc2[nH]1 | 0.79
CN(C)CC(c1ccc(O)cc1)C1(O)CCCCC1 (stereo unspecified) | -0.735
COc1cc(N2CCN(C)CC2)ccc1Nc1nccc(-c2cn(C)c3cnccc23)n1 | -15.9
C[C@@H](Oc1cc(-n2cnc3ccc(CN4CCN(C)CC4)cc32)sc1C(N)=O)c1ccccc1C(F)(F)F | -14.7
Oc1cccc(-c2nc(N3CCOCC3)c3oc4ncccc4c3n2)c1 | -21

###

test system: jimpy (Plp1 jimpy) mouse iPSC-derived oligodendrocyte progenitor cells; assay: total cell number (DAPI+ nuclei) relative to DMSO vehicle control (SDs above negative control mean); higher = more surviving cells; conditions: 10 µM; 3 days
Counter-ions that a name gives are not always drawn. Over roughly 2,600 compounds, “total cell number (DAPI+ nuclei) relative to DMSO vehicle control” has its median near -1.4; the lowest 2% begin near -23. The full list was thinned out, with the lowest values kept by preference.
Each item that follows carries a reported total cell number.

Molecule | total cell number
CC1(C)CCC(c2ccc(Cl)cc2)=C(CN2CCN(c3ccc(C(=O)NS(=O)(=O)c4ccc(N[C@H](CCN5CCOCC5)CSc5ccccc5)c(S(=O)(=O)C(F)(F)F)c4)cc3)CC2)C1 | -16.7
CC(C)NCC(O)COc1cccc2ccccc12 (racemic) [(±)-Propranolol hydrochloride] | -1.57
CC1(C)CCC(CN2CCN(c3ccc(C(=O)NS(=O)(=O)c4ccc(NCC5CCOCC5)c([N+](=O)[O-])c4)c(Oc4cnc5[nH]ccc5c4)c3)CC2)=C(c2ccc(Cl)cc2)C1 | -3.38
CC(C)C[C@H](NC(=O)[C@H]1O[C@@H]1C(=O)O)C(=O)NCCCCN=C(N)N | -3.4
CN(C)CC[C@H](CSc1ccccc1)Nc1ccc(S(=O)(=O)NC(=O)c2ccc(N3CCN(Cc4ccccc4-c4ccc(Cl)cc4)CC3)cc2)cc1[N+](=O)[O-] | -23.1
NOCC(=O)O [O-(Carboxymethyl)hydroxylamine hemihydrochloride] | 1.52

###

tested on: jimpy (Plp1 jimpy) mouse iPSC-derived oligodendrocyte progenitor cells; assay: total cell number (DAPI+ nuclei) relative to DMSO vehicle control (SDs above negative control mean); higher = more surviving cells; settings: 10 µM; 3 days
Counter-ions that a name gives are not always drawn. In all, about 2,600 compounds were measured (“total cell number (DAPI+ nuclei) relative to DMSO vehicle control”: median about -1.4, lowest 2% from about -23 on). This is one part of a sample in which the lowest values are shown more often than they occur.
Tick criterion met if total cell number is -3 or greater. Tick criterion not met if total cell number is less than -3.

Molecule | Label Value
OCCN1CCN(CC/C=C2/c3ccccc3Sc3ccc(C(F)(F)F)cc32)CC1 [cis-(Z)-Flupenthixol dihydrochloride] | criterion not met
COc1cc(OC)c(NC(=O)Nc2cc(C)on2)cc1Cl | criterion met
CS(=O)(=O)c1ccc(C(=O)Nc2ccc(Cl)c(-c3ccccn3)c2)c(Cl)c1 [Vismodegib (GDC-0449)] | criterion met
COc1cc(Nc2c(C#N)cnc3cc(OCCCN4CCN(C)CC4)c(OC)cc23)c(Cl)cc1Cl [Bosutinib (SKI-606)] | criterion not met
CN1CCN(CCOc2cc(OC3CCOCC3)c3c(Nc4c(Cl)ccc5c4OCO5)ncnc3c2)CC1 [Saracatinib (AZD0530)] | criterion not met
CC(C)(C)C(=O)Oc1ccc(S(=O)(=O)Nc2ccccc2C(=O)NCC(=O)O)cc1 [Sivelestat sodium salt hydrate] | criterion met
CC(C)(NS(=O)(=O)c1ccc(Oc2ccc(F)cc2)cc1)C(=O)NO | criterion met
COc1cc(Nc2c(C#N)cnc3cc(OCCCN4CCN(C)CC4)c(OC)cc23)c(Cl)cc1Cl [Bosutinib] | criterion not met

###

test system: jimpy (Plp1 jimpy) mouse iPSC-derived oligodendrocyte progenitor cells; experiment: total cell number (DAPI+ nuclei) relative to DMSO vehicle control (SDs above negative control mean); higher = more surviving cells; settings: 10 µM; 3 days
In all, about 2,600 compounds were measured (“total cell number (DAPI+ nuclei) relative to DMSO vehicle control”: median about -1.4, lowest 2% from about -23 on). Many of the other results were omitted from the sample, so the lowest values are more common in it than they were.

Compound | total cell number
CC[C@H]1OC(=O)C[C@@H](O)[C@H](C)[C@@H](O[C@@H]2O[C@H](C)[C@@H](O)[C@H](N(C)C)[C@H]2O)[C@@H](CCN2C[C@H](C)C[C@H](C)C2)C[C@@H](C)C(=O)/C=C/C(C)=C/[C@@H]1CO[C@@H]1O[C@H](C)[C@@H](O)[C@@H](OC)[C@H]1OC [Tilmicosin] | -3.95
O=C(COc1cccc2c(=O)[nH]ccc12)c1ccccc1 | -0.123
N#Cc1c(O)c2c(-c3ccc(-c4ccccc4O)cc3)csc2[nH]c1=O | 0.298

###

tested on: jimpy (Plp1 jimpy) mouse iPSC-derived oligodendrocyte progenitor cells; assay: total cell number (DAPI+ nuclei) relative to DMSO vehicle control (SDs above negative control mean); higher = more surviving cells; settings: 10 µM; 3 days
Over roughly 2,600 compounds, “total cell number (DAPI+ nuclei) relative to DMSO vehicle control” has its median near -1.4; the lowest 2% begin near -23. The full list was thinned out, with the lowest values kept by preference.
Reported total cell number values for a set of compounds
Assay Endpoint: total cell number

Compound | Value Measured
OC[C@H]1O[C@H]([S-])[C@H](O)[C@@H](O)[C@@H]1O.[Au+] | -2.94
Nc1nccc2c1ncn2C1C=C(CO)C(O)C1O (centres undefined) | -9.16
C=CCNC(N)=S | 6.27
N#CC(C#N)=C(N)/C(C#N)=C/c1cc(O)c(O)c(O)c1 | -1.44
Cc1nc(C(=O)NCC(=O)O)c(O)c2ccc(Oc3ccccc3)cc12 | 3.22
Nc1c(S(=O)(=O)O)cc(Nc2ccc(Nc3nc(Cl)nc(Nc4cccc(S(=O)(=O)O)c4)n3)c(S(=O)(=O)O)c2)c2c1C(=O)c1ccccc1C2=O | -0.98
CCCCc1nc2cc(/C=C/C(=O)NO)ccc2n1CCN(CC)CC [Pracinostat (SB939)] | -12.2
Oc1ccc(/C=C/c2cc(O)cc(O)c2)cc1 | -2.54
CCCCCN(CCCOC)C(=O)C(CCC(=O)O)NC(=O)c1ccc(Cl)c(Cl)c1 (centres undefined) [Loxiglumide] | -0.322

###

test system: jimpy (Plp1 jimpy) mouse iPSC-derived oligodendrocyte progenitor cells; test: total cell number (DAPI+ nuclei) relative to DMSO vehicle control (SDs above negative control mean); higher = more surviving cells; conditions: 10 µM; 3 days
Counter-ions that a name gives are not always drawn. Over roughly 2,600 compounds, “total cell number (DAPI+ nuclei) relative to DMSO vehicle control” has its median near -1.4; the lowest 2% begin near -23. The entries come from a sample that favours the lowest values as a whole.

Molecule | total cell number
COC(=O)C1=C(C)NC(C)=C(C(=O)OC(C)(C)CN(C)CCC(c2ccccc2)c2ccccc2)C1c1cccc([N+](=O)[O-])c1 (stereo unspecified) [Lercanidipine hydrochloride hemihydrate] | -8.91
O=C(Nc1ccc2[nH]ncc2c1)C1CCC1 [Rhodblock 6] | -2.58
CC(C)C[C@H](NC(=O)[C@@H](NC(=O)c1cccc(-c2ccccc2)n1)[C@@H](C)O)B(O)O | -22.6
O=c1cc(-c2ccccc2)oc2cc(O)c(O)c(O)c12 [Baicalein] | -6.52
O=C(Nc1ccccc1-c1cn2c(CN3CCNCC3)csc2n1)c1cnc2ccccc2n1 | -27.8
Cc1cc(Nc2cc(N3CCN(C)CC3)nc(Sc3ccc(NC(=O)C4CC4)cc3)n2)n[nH]1 [VX-680 (Tozasertib, MK-0457)] | -24
CC(C)C[C@H](NC(=O)[C@H](Cc1ccccc1)NC(=O)c1cnccn1)B(O)O [Bortezomib (PS-341)] | -20.2
CN(C)CCC(c1ccc(Cl)cc1)c1ccccn1 (racemic) [(±)-Chlorpheniramine maleate] | -2.22
COc1ccccc1CN[C@H]1CCCN[C@H]1c1ccccc1 | -1.93
Cc1cc(Nc2cc(N3CCN(C)CC3)nc(/C=C/c3ccccc3)n2)n[nH]1 | -26.3
CN1CCN(c2ccc3nc(-c4c(N)c5c(F)cccc5[nH]c4=O)[nH]c3c2)CC1 [Dovitinib (TKI-258, CHIR-258)] | -25.7
